# measurement.target: Rap guanine nucleotide exchange factor 3 (Homo sapiens)
# procedure.summary: Confirmatory qHTS for antagonist of cAMP-regulated guanine nucleotide exchange factor 3 (EPAC1) (AID 1645880); note: nearly all actives have a fitted effect of over 55% in size
# experimental.parameters: EPAC1 Rap1B-BODIPY-GDP exchange, fluorescence; series mostly up to 115 µM
Results filed as inconclusive are left out. Activity calls are given as the source filed them. Calls come from the whole dose curve; as a rule, active = well fitted inhibition curve with a large enough effect; inconclusive = small, poorly fitted or top-dose-only effect; inactive = no such curve, though single readings can be large or run the other way.
# output must be one of Yes (active), No (inactive)

Query: recorded result category for O=C(c1ccco1)N(CCC(c1ccccc1)c1ccco1)Cc1ccco1 (stereo not given) in this test
Yes

Query: recorded result category for CCN(CC)c1ccc2cc(-c3nc(-c4ccccc4F)no3)c(=O)oc2c1 in this test
No

Query: recorded result category for CC(C)(C)c1nc(-c2ccccc2)nc2c1OCCC2 in this test
No

Query: recorded result category for Cc1ccc(S(=O)(=O)N2[C@@H](c3ccc(Cl)cc3)C(C(=O)O)=CC[C@H]2c2ccc(C(C)C)cc2)cc1 in this test
Yes

Query: recorded result category for NNC(=O)c1cccc(COCC(F)(F)C(F)F)c1 in this test
No

###

# System: CP217
# procedure.summary: qHTS profiling for inhibitors of Plasmodium falciparum proliferation (AID 504749); note: nearly all actives have a fitted effect of over 60% in size
# experimental.parameters: P. falciparum in erythrocytes, SYBR Green DNA, 72 h; series mostly up to 12.8 µM
Inconclusive results are not listed. The source made the active and inactive calls. Calls follow the shape of the dose curve; as a rule, active = well fitted inhibition curve with a large enough effect; inconclusive = small, poorly fitted or top-dose-only effect; inactive = flat fitted curve, though single readings scatter.
# output must be one of active, inactive

Query: recorded result category for CC1(C)OC2CO[C@]3(COS(N)(=O)=O)OC(C)(C)OC3C2O1 (some centres undefined) in this test
inactive

Query: recorded result category for CN1CCC[C@@H](CC2c3ccccc3Sc3ccccc32)C1 in this test
inactive

Query: recorded result category for CCN(CC)CCOC(=O)[C@@H](Cc1cccc2ccccc12)C[C@@H]1CCCO1 in this test
inactive

Query: recorded result category for CC(=O)N(C[C@@H](C)C(=O)O)c1c(I)cc(I)c(N)c1I in this test
inactive

Query: recorded result category for COC(=O)[C@@H]1[C@@H]2C[C@H]3c4[nH]c5cc(OC)ccc5c4CCN3C[C@@H]2C[C@H](OC(=O)/C=C\c2cc(OC)c(OC)c(OC)c2)[C@H]1OC in this test
active

Query: recorded result category for COc1ccc2c(c1)N(C[C@@H](C)CN(C)C)c1ccccc1S2 in this test
inactive

Query: recorded result category for NC(=O)c1cc[n+](CC2=C(C(=O)[O-])N3C(=O)[C@@H](NC(=O)Cc4cccs4)[C@@H]3SC2)cc1 in this test
inactive

Query: recorded result category for CC(C)(C)NC(=O)[C@@H]1CC[C@@H]2[C@@H]3CC[C@@H]4NC(=O)C=C[C@@]4(C)[C@H]3CC[C@]21C in this test
inactive

Query: recorded result category for NC(C(=O)O)[C@@H]1CC(Cl)=NO1 (some centres undefined) in this test
active

###

# procedure.summary: qHTS Assay for Lipid Storage Modulators (AID 1519)
# experimental.parameters: Drosophila S3 cells, BODIPY lipid droplet/cell ratio, laser cytometry; measured here: cell count channel max response; cells loaded with oleic acid
Results filed as inconclusive are left out.
For each entry below, report its max response value.
Expressed in %, but write only the number.

Endpoint output: max response of CO[C@]1(NC(=O)C2SC(=C(C(N)=O)C(=O)O)S2)C(=O)N2C(C(=O)O)=C(CSc3nnnn3C)CS[C@H]21 (some centres undefined) . Value?
0.185

Endpoint output: max response of CC1(C)CCCC2(C)C3C(O)CC2(C)C(O)C31 (centres undefined) . Value?
-2.66

Endpoint output: max response of NC(CSCSCC(N)C(=O)O)C(=O)O (centres undefined) . Value?
7.28

Endpoint output: max response of C[C@@H]1C[C@H]2[C@@H]3C[C@H](F)C4=CC(=O)C=C[C@@]4(C)[C@]3(F)[C@H](O)C[C@]2(C)[C@@]1(O)C(=O)CO . Value?
0.642

Endpoint output: max response of COc1ccc2c3c([nH]c2c1)[C@@H]1C[C@@H]2[C@@H](C[C@H](O)[C@H](OC)[C@H]2C(=O)O)CN1CC3 . Value?
-18.6

Endpoint output: max response of CC(=O)OC1CC[C@]2(C)C(CC[C@@]3(C)C2C(=O)C=C2C4C(C)C(C)CC[C@@]4(C(=O)O)CCC23C)C1(C)C (some centres undefined) . Value?
18.2

Endpoint output: max response of CCC(=O)O[C@@]1(C(=O)CCl)[C@@H](C)C[C@@H]2[C@H]3CCC4=CC(=O)C=C[C@@]4(C)[C@]3(F)[C@@H](O)C[C@@]21C . Value?
-18.1

Endpoint output: max response of NS(=O)(=O)c1cc2c(cc1Cl)N[C@@H](C(Cl)Cl)NS2(=O)=O . Value?
-19.9

Endpoint output: max response of COc1ccc2c(c1)OC/C(=C\c1ccc(OC)c(O)c1)C2=O . Value?
2.46

Endpoint output: max response of CC(C)(C)NC[C@H](O)COc1cccc2c1C[C@@H](O)[C@@H](O)C2 . Value?
-8.96

Endpoint output: max response of C=C1CCC2C(C)(CO)C(O)CCC2(C)C1C/C=C1\C(=O)OCC1O (centres undefined) . Value?
24.9

Endpoint output: max response of CC(=O)OCC(=O)[C@@]1(O)[C@H](C)C[C@@H]2[C@H]3CCC4=CC(=O)C=C[C@]4(C)[C@]3(F)[C@@H](O)C[C@@]21C . Value?
-15.2

Endpoint output: max response of CC1(C)C2CC[C@@]1(C)C(=O)C2 . Value?
13.5

Endpoint output: max response of CC1CCC(C(C)C)[C@H](O)C1 (some centres undefined) . Value?
-2.41

Endpoint output: max response of O=C(N[C@@H](CO)[C@@H](O)c1ccc([N+](=O)[O-])cc1)C(Cl)Cl . Value?
11.1

Endpoint output: max response of CCC(C)C(=O)OC1CC(O)C=C2C=CC(C)C(CCC(O)CC(O)CC(=O)O)C21 (centres undefined) . Value?
11.3

Endpoint output: max response of CC1(C)S[C@@H]2[C@H](NC(=O)C(N)c3ccccc3)C(=O)N2[C@H]1C(=O)O (some centres undefined) . Value?
8.14

Endpoint output: max response of CC(C)(CO)[C@H](O)C(=O)NCCC(=O)O . Value?
7.75

Endpoint output: max response of CC1O[C@@H](O[C@H]2C(Oc3cc(O)c4c(=O)cc(-c5ccc(O)cc5)oc4c3)OC(CO)C(O)C2O)C(O)C(O)C1O (some centres undefined) . Value?
16.6
